- target or system: CSF1R (Homo sapiens)
- Sequence (P07333 20-972): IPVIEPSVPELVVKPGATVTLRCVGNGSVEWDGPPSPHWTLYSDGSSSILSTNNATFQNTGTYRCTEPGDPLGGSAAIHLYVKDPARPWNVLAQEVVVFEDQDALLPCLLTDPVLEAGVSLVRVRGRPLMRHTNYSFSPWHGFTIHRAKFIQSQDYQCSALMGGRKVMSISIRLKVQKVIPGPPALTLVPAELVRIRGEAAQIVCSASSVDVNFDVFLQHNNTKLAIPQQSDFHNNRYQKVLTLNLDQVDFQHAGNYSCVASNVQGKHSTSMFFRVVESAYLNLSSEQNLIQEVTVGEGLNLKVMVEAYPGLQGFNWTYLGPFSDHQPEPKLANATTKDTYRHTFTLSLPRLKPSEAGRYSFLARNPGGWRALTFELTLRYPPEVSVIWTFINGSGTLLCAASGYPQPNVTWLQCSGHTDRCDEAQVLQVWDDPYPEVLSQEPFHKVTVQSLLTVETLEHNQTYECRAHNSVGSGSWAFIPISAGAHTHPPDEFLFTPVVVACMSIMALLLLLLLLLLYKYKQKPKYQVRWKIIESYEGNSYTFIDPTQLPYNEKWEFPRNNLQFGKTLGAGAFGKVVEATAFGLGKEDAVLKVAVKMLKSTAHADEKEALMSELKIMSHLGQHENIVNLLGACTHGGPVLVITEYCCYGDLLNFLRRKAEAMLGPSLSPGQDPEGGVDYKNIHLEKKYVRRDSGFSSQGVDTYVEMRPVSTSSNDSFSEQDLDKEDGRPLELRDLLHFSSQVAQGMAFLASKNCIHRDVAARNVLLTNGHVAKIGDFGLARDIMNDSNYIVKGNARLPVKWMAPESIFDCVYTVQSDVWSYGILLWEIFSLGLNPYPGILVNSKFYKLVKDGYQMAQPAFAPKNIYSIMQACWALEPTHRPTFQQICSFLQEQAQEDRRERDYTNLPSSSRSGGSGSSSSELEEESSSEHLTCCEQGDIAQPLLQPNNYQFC
- experiment notes: KINOMEscan competition binding assay for CSF1R
- Set-up: DNA tag for qPCR (not a peptide); host or cells: E. coli/T7 phage or HEK-293
- experimental parameters: @ 0.1 uM; read-out: CSF1R kinase binding activity, Percent (%) inhibition
outcome measure: inhibition at 0.1 µM (%)

INSERT INTO measurements (compound, meas_value) VALUES
  ('CCCn1cc(OCC2CCOCC2)c(C(=O)Nc2ccc(Oc3ccnc4cc(OC)c(OC)cc34)cn2)n1', 73);

[a] COc1cc2nccc(Oc3ccc(NC(=O)c4nn(C5CCCCC5)cc4OCC(F)(F)F)nc3)c2cc1OC
[b] COc1cc2nccc(Oc3ccc(NC(=O)c4nn(C5CCOC5)cc4OCC(F)(F)F)cn3)c2cc1OC (stereo not drawn)
Record comparison, field inhibition at 0.1 µM: mark the lower of a and b . Answer format: the label of the selected item.
b
(b: 9%, a: 89%)
